Where do these numbers come from? They come from PubChem BioAssay AID1963827.

- System: 994946-033-R-J1-PDC complex spheroid viability
- Measurement Description: Anticancer human tumor 994946-033-R-J1-PDC patient-derived melanoma cell line growth inhibition [POLQ]
- Study Conditions: second compound 3.16 µM; first compound 0.0316 µM; stronger effect = lower value
# label = TRUE if viability, T/C < 90% else FALSE

Here are 4 compounds together with their reported answers.
Compound	Class Label
CC[C@@]1(O)C(=O)OCc2c1cc1n(c2=O)Cc2cc3c(CN(C)C)c(O)ccc3nc2-1 + Cc1cccc(N(C)C(=O)C2C(O)CCN2c2nc(C)cc(C(F)(F)F)c2C#N)c1	TRUE
CCc1cc2c(N3CCc4c(cc(Cn5ccnc5)cc4-c4cn(C)nc4C(F)(F)F)C3=O)ccnc2c(OC)n1 + Nc1ccc(C#CCN(C(=O)Cc2ncc(C(F)(F)F)cc2C(F)(F)F)c2ccc(F)cc2)nn1	TRUE
Cn1ncnc1[C@H]1c2n[nH]c(=O)c3cc(F)cc(c23)N[C@@H]1c1ccc(F)cc1 + Cc1cccc(N(C)C(=O)C2C(O)CCN2c2nc(C)cc(C(F)(F)F)c2C#N)c1	TRUE
CCc1cc2c(N3CCc4c(cc(Cn5ccnc5)cc4-c4cn(C)nc4C(F)(F)F)C3=O)cc(C)nc2c(OC)n1 + Nc1ccc(C#CCN(C(=O)Cc2ncc(C(F)(F)F)cc2C(F)(F)F)c2ccc(F)cc2)nn1	FALSE

Attention now turns to another entry.
Q. Item CNCc1ccc(-c2[nH]c3cc(F)cc4c3c2CCNC4=O)cc1 + Nc1ccc(C#CCN(C(=O)Cc2ncc(C(F)(F)F)cc2C(F)(F)F)c2ccc(F)cc2)nn1 : viability, T/C beneath 90%, strictly?
A. FALSE

----------
- Test system: 994946-033-R-J1-PDC complex spheroid viability
- Measurement Description: Anticancer human tumor 994946-033-R-J1-PDC cell line growth inhibition [POLQ];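 also: spheroids exposed to drugs for 7 days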;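 as to viability, T/C: 100% = DMSO vehicle treated spheroids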
- Study Conditions: second compound 1 µM; first compound 0.0316 µM; stronger effect = lower value
Mark each entry met if its viability, T/C sits below 80%, and not met for all others.

Consider the worked cases shown below.
Compound	Target	Class Label
COc1cc(C2c3cc4c(cc3C(OC3OC5COC(C)OC5C(O)C3O)C3COC(=O)C23)OCO4)cc(OC)c1O (stereo not given) + COC1C(OC(N)=O)C(O)C(Oc2ccc3c(O)c(NC(=O)c4ccc(O)c(CC=C(C)C)c4)c(=O)oc3c2C)OC1(C)C	994946-033-R-J1-PDC complex spheroid viability	not met
C#Cc1c(F)ccc2cc(O)cc(-c3ncc4c(N5CC6CCC(C5)N6)nc(OCC56CCCN5CC(F)C6)nc4c3F)c12 (stereo not given) + Cc1cccc(N(C)C(=O)C2C(O)CCN2c2nc(C)cc(C(F)(F)F)c2C#N)c1	994946-033-R-J1-PDC complex spheroid viability	not met
COc1cccc2c1C(=O)c1c(O)c3c(c(O)c1C2=O)CC(O)(C(=O)CO)CC3OC1CC(N)C(O)C(C)O1 (stereo not given) + COC1C(OC(N)=O)C(O)C(Oc2ccc3c(O)c(NC(=O)c4ccc(O)c(CC=C(C)C)c4)c(=O)oc3c2C)OC1(C)C	994946-033-R-J1-PDC complex spheroid viability	met
CNCc1ccc(-c2[nH]c3cc(F)cc4c3c2CCNC4=O)cc1 + Nc1ccc(C#CCN(C(=O)Cc2ncc(C(F)(F)F)cc2C(F)(F)F)c2ccc(F)cc2)nn1	994946-033-R-J1-PDC complex spheroid viability	met
COc1ccc([C@@H](O)c2cc(-c3ncnc4cc(N5CCOCC5)ccc34)c(F)cc2Cl)nn1 + COC1C(OC(N)=O)C(O)C(Oc2ccc3c(O)c(NC(=O)c4ccc(O)c(CC=C(C)C)c4)c(=O)oc3c2C)OC1(C)C	994946-033-R-J1-PDC complex spheroid viability	not met

Q. Threshold test, viability, T/C < 80%: O=C(Nc1ccc(O)c(NS(=O)(=O)c2ccc(F)cc2)c1)c1ccc(-c2ccccc2)cc1 + COC1C(OC(N)=O)C(O)C(Oc2ccc3c(O)c(NC(=O)c4ccc(O)c(CC=C(C)C)c4)c(=O)oc3c2C)OC1(C)C
A. not met

Q. API: query returns whether the compound falls strictly under 80% in viability, T/C. Query: COc1cc(C2c3cc4c(cc3C(OC3OC5COC(C)OC5C(O)C3O)C3COC(=O)C23)OCO4)cc(OC)c1O (stereo not given) + Cc1cccc(N(C)C(=O)C2C(O)CCN2c2nc(C)cc(C(F)(F)F)c2C#N)c1
A. not met

Q. Find out if reported viability, T/C for CCc1c2c(nc3ccc(O)cc13)-c1cc3c(c(=O)n1C2)COC(=O)[C@]3(O)CC + COC1C(OC(N)=O)C(O)C(Oc2ccc3c(O)c(NC(=O)c4ccc(O)c(CC=C(C)C)c4)c(=O)oc3c2C)OC1(C)C is less than 80%
A. met

Q. For this compound, is viability, T/C lower than 80%? CCCS(=O)(=O)Nc1ccc(F)c(C(=O)c2c[nH]c3ncc(-c4ccc(Cl)cc4)cc23)c1F + Nc1ccc(C#CCN(C(=O)Cc2ncc(C(F)(F)F)cc2C(F)(F)F)c2ccc(F)cc2)nn1
A. not met

----------
- System: 994946-033-R-J1-PDC complex spheroid viability
- Measurement Description: Anticancer human tumor 994946-033-R-J1-PDC cell line growth inhibition [POLQ];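 also: spheroids exposed to drugs for 7 days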
- Study Conditions: curve of first compound; second compound 0.316 µM
// NB: equality with 7 µM counts as No; only IC50 strictly below is Yes

Molecule	Class Label
COc1cccc2c1C(=O)c1c(O)c3c(c(O)c1C2=O)CC(O)(C(=O)CO)CC3OC1CC(N)C(O)C(C)O1 (stereo not given) + Cc1cccc(N(C)C(=O)C2C(O)CCN2c2nc(C)cc(C(F)(F)F)c2C#N)c1	Yes

Q. Lab note: confirm whether the reported IC50 for this molecule is below 7 µM, equality not counting. molecule: O=C(c1cc(Cc2n[nH]c(=O)c3ccccc23)ccc1F)N1CCN(C(=O)C2CC2)CC1 + Cc1cccc(N(C)C(=O)C2C(O)CCN2c2nc(C)cc(C(F)(F)F)c2C#N)c1
A. No

Q. Would you kindly verify if IC50 of CCCS(=O)(=O)Nc1ccc(F)c(C(=O)c2c[nH]c3ncc(-c4ccc(Cl)cc4)cc23)c1F + Cc1cccc(N(C)C(=O)C2C(O)CCN2c2nc(C)cc(C(F)(F)F)c2C#N)c1 is strictly less than 7 µM?
A. Yes

Q. For COc1cc2cc(C(=O)CCC(=O)O)sc2cc1OC + COC1C(OC(N)=O)C(O)C(Oc2ccc3c(O)c(NC(=O)c4ccc(O)c(CC=C(C)C)c4)c(=O)oc3c2C)OC1(C)C , is the recorded IC50 below the cut-off of 7 µM?
A. No

Q. Given C#Cc1c(F)ccc2cc(O)cc(-c3ncc4c(N5CC6CCC(C5)N6)nc(OCC56CCCN5CC(F)C6)nc4c3F)c12 (stereo not given) + Nc1ccc(C#CCN(C(=O)Cc2ncc(C(F)(F)F)cc2C(F)(F)F)c2ccc(F)cc2)nn1 , is recorded IC50 strictly lower than 7 µM?
A. Yes

Q. hey, is IC50 for CC(C)n1c(=O)n(C)c2cnc3cc(F)c(-c4ccc(OCCCN5CCCCC5)nc4)cc3c21 + COC1C(OC(N)=O)C(O)C(Oc2ccc3c(O)c(NC(=O)c4ccc(O)c(CC=C(C)C)c4)c(=O)oc3c2C)OC1(C)C lower than 7 µM or not?
A. No

Q. A record lists Nc1ccn(C2OC(CO)C(O)C2(F)F)c(=O)n1 (stereo not given) + Nc1ccc(C#CCN(C(=O)Cc2ncc(C(F)(F)F)cc2C(F)(F)F)c2ccc(F)cc2)nn1 . Is its IC50 below 7 µM?
A. Yes

Q. Given CC(C)n1c(=O)n(C)c2cnc3cc(F)c(-c4ccc(OCCCN5CCCCC5)nc4)cc3c21 + Nc1ccc(C#CCN(C(=O)Cc2ncc(C(F)(F)F)cc2C(F)(F)F)c2ccc(F)cc2)nn1 , is recorded IC50 strictly lower than 7 µM?
A. No

Q. Below 7 µM on IC50? Entry COc1cccc(OCCCN)c1-c1cc(Nc2cnc(C#N)cn2)n[nH]1 + COC1C(OC(N)=O)C(O)C(Oc2ccc3c(O)c(NC(=O)c4ccc(O)c(CC=C(C)C)c4)c(=O)oc3c2C)OC1(C)C
A. Yes

Q. Please determine if CC(=O)O[C@H]1C(=O)[C@@]2(C)[C@H]([C@H](OC(=O)c3ccccc3)[C@]3(O)C[C@H](OC(=O)[C@H](O)[C@@H](NC(=O)c4ccccc4)c4ccccc4)C(C)=C1C3(C)C)[C@]1(OC(C)=O)CO[C@@H]1C[C@@H]2O + COC1C(OC(N)=O)C(O)C(Oc2ccc3c(O)c(NC(=O)c4ccc(O)c(CC=C(C)C)c4)c(=O)oc3c2C)OC1(C)C is below 7 µM in terms of IC50.
A. Yes

----------
- System: 994946-033-R-J1-PDC complex spheroid viability
- Measurement Description: Anticancer human tumor 994946-033-R-J1-PDC cell line growth inhibition [POLQ];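 also: spheroids exposed to drugs for 7 days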;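 as to viability, T/C: 100% = DMSO vehicle treated spheroids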
- Study Conditions: second compound 3.16 µM; first compound 0.0316 µM; stronger effect = lower value
Let's look at some compounds and their measured viability, T/C.
Answer format: numeric, % implied, no suffix.

Below, each entry is followed by its recorded viability, T/C result.
Compound	viability, T/C (%)
CC(C)n1c(=O)n(C)c2cnc3cc(F)c(-c4ccc(OCCCN5CCCCC5)nc4)cc3c21 + Cc1cccc(N(C)C(=O)C2C(O)CCN2c2nc(C)cc(C(F)(F)F)c2C#N)c1	94.8
CCc1c2c(nc3ccc(O)cc13)-c1cc3c(c(=O)n1C2)COC(=O)[C@]3(O)CC + Nc1ccc(C#CCN(C(=O)Cc2ncc(C(F)(F)F)cc2C(F)(F)F)c2ccc(F)cc2)nn1	8.04
Nc1ccn(C2OC(CO)C(O)C2(F)F)c(=O)n1 (stereo not given) + Cc1cccc(N(C)C(=O)C2C(O)CCN2c2nc(C)cc(C(F)(F)F)c2C#N)c1	39.7
O=c1[nH]cc(F)c(=O)[nH]1 + COC1C(OC(N)=O)C(O)C(Oc2ccc3c(O)c(NC(=O)c4ccc(O)c(CC=C(C)C)c4)c(=O)oc3c2C)OC1(C)C	124

Next item in the queue.
Q. I'd like to know its viability, T/C. The compound in question is C=CCn1c(=O)c2cnc(Nc3ccc(N4CCN(C)CC4)cc3)nc2n1-c1cccc(C(C)(C)O)n1 + COC1C(OC(N)=O)C(O)C(Oc2ccc3c(O)c(NC(=O)c4ccc(O)c(CC=C(C)C)c4)c(=O)oc3c2C)OC1(C)C
A. 106
